Data origin: paper PMC12040169

Assay: in vitro
Settings: human, hela cells, % viability
Lab note: anything with viability at 28.5 h, 10 µM below 90% is marked 1; values at 90% or higher are marked 0.

[[record]]
compound = "O=C(Oc1ccc(/C=N/Nc2nc(N3CCOCC3)nc(N3CCOCC3)n2)cc1)c1ccccc1 [CBK262064]"
group_label = 0

[[record]]
compound = "CC(=O)N1Cc2ccccc2OC2(CCN(C(=O)C3CC3)CC2)C1 [CBK285037]"
group_label = 0

[[record]]
compound = "CC(=O)Cn1cnc2c(cnn2-c2cccc(Cl)c2)c1=O [CBK287692]"
group_label = 1

[[record]]
compound = "Cc1nc2c(c(=O)[nH]1)CC[C@@H]1CN(C(=O)Cc3cccc(F)c3)C[C@H]21 [CBK284413]"
group_label = 1

[[record]]
compound = "O=C1N=C(NCC2CCCCC2)SC1CC(=O)N1Cc2ccccc2C1 (stereo not drawn) [CBK067016]"
group_label = 1

[[record]]
compound = "c1ccc2c(Sc3cc(N4CCCC4)ncn3)cccc2c1 [CBK089538]"
group_label = 0


----------
Experiment: in vitro
Conditions: human, hela cells, % viability
readout_kind: viability at 28.5 h, 10 µM (%)

[[record]]
molecule = "Cc1ccc(C(=O)NCc2cccnc2N(C)C2CCCCC2)cn1"
display_unit = "%"
result_number = 116

[[record]]
molecule = "Cc1ccsc1C(=O)N1CCN(Cc2cc(=O)n3ccccc3n2)CC1"
display_unit = "%"
result_number = 102

[[record]]
molecule = "O=C(Nc1nc2c(Br)cccc2s1)c1nc2ccccc2s1"
display_unit = "%"
result_number = 92.2

[[record]]
molecule = "O=C(c1cccnc1)N1CCCC2(CCN(C(=O)c3ccoc3)C2)C1 (stereo not drawn)"
display_unit = "%"
result_number = 97

[[record]]
molecule = "O=C(O)C1C2C=CC(O2)C1C(=O)Nc1ccc2c(c1)OCO2 (stereo not drawn)"
display_unit = "%"
result_number = 88.6

[[record]]
molecule = "CCC(=O)N1CCC(c2nc(Cc3cccs3)no2)C1 (stereo not drawn)"
display_unit = "%"
result_number = 88.5

[[record]]
molecule = "CCC(CC)(CC(=O)Nc1ccc(N2CCCC2=O)c(C)c1)C(=O)O"
display_unit = "%"
result_number = 101

[[record]]
molecule = "CC(=O)Nc1cccc(C(=O)NC2CC(=O)N(C3CCCCCC3)C2)c1 (stereo not drawn)"
display_unit = "%"
result_number = 102

[[record]]
molecule = "COc1ccc(-c2ccnc(N[C@H]3CO[C@H]4[C@@H]3OC[C@@H]4NC(=O)C3CCCCC3)n2)cc1"
display_unit = "%"
result_number = 88.9


----------
Assay: in vitro
Details: human, hela cells, % viability
readout_kind: viability at 28.5 h, 10 µM (%)

[[record]]
molecule = "Cc1cc(C)c2c3c(sc2n1)C(=O)N(C)CC(=O)N3"
readout_kind = "viability at 28.5 h, 10 µM"
result_number = 83.8

[[record]]
molecule = "NC(=O)CN1CCCN(c2cc(OCCc3c[nH]c4ccccc34)ncn2)CC1"
readout_kind = "viability at 28.5 h, 10 µM"
result_number = 96.6

[[record]]
molecule = "CC(C)c1ccc(/C=N/Nc2nc(-c3ccccc3)cs2)cc1"
readout_kind = "viability at 28.5 h, 10 µM"
result_number = 94.5

[[record]]
molecule = "O=C(O)c1ccc(OCC(O)Cn2nnc3ccccc32)cc1 (centres unmarked)"
readout_kind = "viability at 28.5 h, 10 µM"
result_number = 103

[[record]]
molecule = "CCCn1c(=O)c(C(=O)NCCN(CC)CC)c(O)c2cc(Br)ccc21"
readout_kind = "viability at 28.5 h, 10 µM"
result_number = 85.7


----------
Assay: in vitro
Conditions: human, hela cells, % viability
# viability at 28.5 h, 10 µM per entry
readout_kind: viability at 28.5 h, 10 µM (%)

[[record]]
compound = "Cc1cccc(OCc2nnc(SCC(=O)Nc3cc(C(F)(F)F)ccc3Cl)o2)c1C"
display_unit = "%"
result_number = 85.3

[[record]]
compound = "O=C(COc1ccccc1[N+](=O)[O-])Nc1cc(C(=O)O)cc(C(=O)O)c1"
display_unit = "%"
result_number = 93.9

[[record]]
compound = "COc1ccc(C(=O)N2CCC3(CCCN(C(=O)CC4NC(=O)NC4=O)C3)C2)cc1OC (centres unmarked)"
display_unit = "%"
result_number = 93.7

[[record]]
compound = "CNC(=S)N(CCS(=O)(=O)c1ccc(Cl)cc1)Cc1cccs1"
display_unit = "%"
result_number = 97.5

[[record]]
compound = "O=C(Cc1ccc(Cl)cc1)N1CCc2c([nH]c3ccccc23)C12CCN(Cc1ccc(F)cc1)C2 (centres unmarked)"
display_unit = "%"
result_number = 90.6

[[record]]
compound = "O=S(=O)(NCC(Nc1cccc2ccccc12)c1ccccc1)c1ccc(Cl)cc1 (centres unmarked)"
display_unit = "%"
result_number = 90.3

[[record]]
compound = "Nc1cc2ccccc2c(-c2cc(F)cc(F)c2)n1"
display_unit = "%"
result_number = 97

[[record]]
compound = "COc1ccccc1CN(Cc1cccs1)C(=O)Cn1cnnn1"
display_unit = "%"
result_number = 96.5

[[record]]
compound = "Cn1c(=O)oc2ccc(C(=O)NCCN3CCCCC3CO)cc21 (centres unmarked)"
display_unit = "%"
result_number = 78

[[record]]
compound = "O=C(O)COCC(=O)N1CCN(C(c2ccccc2)c2ccccc2)CC1"
display_unit = "%"
result_number = 84.3

[[record]]
compound = "O=c1c2cc(F)ccc2nc2n1CCN(Cc1ccsc1)CC2"
display_unit = "%"
result_number = 106

[[record]]
compound = "CCn1c(=O)sc2cc(Br)ccc21"
display_unit = "%"
result_number = 97

[[record]]
compound = "Cc1ccc(CNCc2cc3c(C)nn(-c4ccccc4)c3[nH]c2=O)o1"
display_unit = "%"
result_number = 90.8

[[record]]
compound = "CCOC(=O)N1CCN(C(=O)c2c(C)nn(C)c2Cl)CC1"
display_unit = "%"
result_number = 92.6

[[record]]
compound = "COc1ccccc1NC(=O)C1=C(C)NC(SCC(=O)Nc2ccc(C(=O)O)cc2)=C(C#N)C1c1cccs1 (centres unmarked)"
display_unit = "%"
result_number = 102

[[record]]
compound = "O=C(O)c1ccc(NC(=O)c2ncn(-c3ccccc3)n2)cc1"
display_unit = "%"
result_number = 97.7

[[record]]
compound = "O=C(Cc1cccnc1)N1CCC(Cc2ccccc2)CC1"
display_unit = "%"
result_number = 97

[[record]]
compound = "CN1CCN(c2nc(-c3ccc4c(c3)CCCC(=O)N4)cs2)CC1"
display_unit = "%"
result_number = 98.6

[[record]]
compound = "CCOc1ccc(Cc2nnc(S)n2C2CC2)cc1OCC"
display_unit = "%"
result_number = 66.4

[[record]]
compound = "COc1ccccc1N/C(=N\\OCc1ccc(Cl)cc1Cl)c1nonc1N"
display_unit = "%"
result_number = 91


----------
Assay: in vitro
Design: Viability of infected HeLa host cells, resazurin conversion, bulk resorufin fluorescence relative to DMSO
Details: human, hela cells; bulk resorufin, mean of 3
# viability at 28.5 h, 0.333 µM per entry
readout_kind: viability at 28.5 h, 0.333 µM (%)

[[record]]
molecule = "Cc1cccc(-c2ccc(CC3(C(N)=O)CCN(C(=O)CCc4ccccc4)CC3)cc2)c1 [c38e]"
display_unit = "%"
result_number = 94.7

[[record]]
molecule = "O=C(c1ccc(-c2ccc(F)cc2)o1)N1C[C@H]2CC[C@](O)(c3ccc(F)cc3)[C@H]2C1"
display_unit = "%"
result_number = 95.7

[[record]]
molecule = "C1=C(CCNCCc2ccccc2)c2ccccc2C12CCCC2 [c51e]"
display_unit = "%"
result_number = 99.6

[[record]]
molecule = "COc1ccc2cc3c(nc2c1)OC(=O)N(CC1CC1)C3 [c32e]"
display_unit = "%"
result_number = 88.5

[[record]]
molecule = "COCCNc1nc2c(c(N3CCCCCC3)n1)CCNCC2 [c18e]"
display_unit = "%"
result_number = 107

[[record]]
molecule = "CCOc1ccc2nc(NC(=N)N)nc(C)c2c1 [c37e]"
display_unit = "%"
result_number = 88.4

[[record]]
molecule = "Cc1cccc(OCC(C)NC(=O)NCCc2cnn(C)c2)c1 (centres unmarked) [c47e]"
display_unit = "%"
result_number = 112

[[record]]
molecule = "Fc1cc(Br)c(CNCc2ncc[nH]2)c(N2CCCCC2)c1F [c31e]"
display_unit = "%"
result_number = 93.6

[[record]]
molecule = "OCCNc1nc(Nc2ccc(Br)cc2)nc2ccccc12 [c17e]"
display_unit = "%"
result_number = 88.9

[[record]]
molecule = "COCC(=O)N[C@H]1C[C@H]2C(=O)Nc3ccc(/C=C/c4ccccc4)cc3C(=O)N2C1 [c25e]"
display_unit = "%"
result_number = 102

[[record]]
molecule = "COc1ccc(CC(=O)N2CCCC(c3nc(C)c4c(n3)N(CC3CC3)CCC4)C2)cc1 (centres unmarked) [c52e]"
display_unit = "%"
result_number = 88.5

[[record]]
molecule = "O=[N+]([O-])c1ccc2[nH]c3c(c2c1)CCCC3NC1CCN(CCc2ccccc2)CC1 (centres unmarked) [c23e]"
display_unit = "%"
result_number = 90.5

[[record]]
molecule = "CCC1C(c2ccc(C)cc2)=CCC(C(=O)NCCCN(C)C)C1C (centres unmarked) [c30e]"
display_unit = "%"
result_number = 87.9

[[record]]
molecule = "CC(=O)Nc1ccc(-c2cccc(COC3CCN(C(=O)c4ccc(OC(C)C)cc4)CC3)c2)cc1 [c36e]"
display_unit = "%"
result_number = 94.8

[[record]]
molecule = "O=C(N/N=C\\c1ccc([N+](=O)[O-])o1)c1nc(-c2ccccc2)cc(-c2ccccc2)n1"
display_unit = "%"
result_number = 91.6

[[record]]
molecule = "O=C(NCCCn1ccnc1)c1cc(-c2cccc(Br)c2)nc2ccccc12 [c50e]"
display_unit = "%"
result_number = 85.4

[[record]]
molecule = "CN(C)c1ccc(Nc2nc(NCCO)c3ccccc3n2)cc1 [c27e]"
display_unit = "%"
result_number = 95.3

